# experimental-protocol: soluble on expression in E. coli; label from the status in PepcDB or PDB records
endpoint: soluble on expression in E. coli

Some solved entries appear below for comparison.
biopolymer_sequence=MAELQKVDDWLSALLANLEPAARSRMMRQLAQELRRTQQQNIRMQRNPDGSSYEPRRVTARSKKGRIKRQMFAKLRTTKYLKTAASADSASVQFEGKVQSIARVHHYGLRDRVSRKGPEVRYAERRLLGVNDDVEAMTRDMILQWLAG obs_value="not soluble"
biopolymer_sequence=MTLLRGTVRTKTSCQLVSAIGTQNCTVWEGYEVSEITPGNSNTSYITWKRSVPNTNLSQPITSCPASTVKFPTCKVGWKLFPRYNTYWCLTLGINRRERDGYLLQFDQSFSYVACRWDGSEFIDGRISGLESNEERAYATDRAYQIMKQNMRETLFVFPSNVRLGWGVWVDGVKDVAGQVKYSDTTLNLKLGYKWDIGQPNWVSRKQACVMLMVPVNQSSRSNGSLRTAEYLRSI obs_value="not soluble"
biopolymer_sequence=MDSKAIAERIKKLQAQQEHVRIGGKGTPRRKKKVIHKTAAADDKKLQSNLKKLSVTNIPGIEEVNMIKDDGTVIHFNNPKVQTSVPANTFSVTGSADNKQITEMLPGILNQLGPESLTHLKKLANNVTKLGPDGKGEDEDVPELVGDFDAASKNETKADEQ obs_value=soluble
biopolymer_sequence=MTNLPMNKLIDEVNNELSVAINKSVMDTQLEESMLYSLNAGGKRIRPVLLLLTLDSLNTEYELGMKSAIALEMIHTYSLIHDDLPAMDNDDYRRGKLTNHKVYGEWTAILAGDALLTKAFELISSDDRLTDEVKIKVLQRLSIASGHVGMVGGQMLDMQSEGQPIDLETLEMIHKTKTGALLTFAVMSAADIANVDDTTKEHLESYSYHLGMMFQIKDDLLDCYGDEAKLGKKVGSDLENNKSTYVSLLGKDGAEDKLTYHRDAAVDELTQIDEQFNTKHLLEIVDLFYSRDHKGHHHHHH obs_value=soluble
biopolymer_sequence=MAASVEQREGTIQVQGQALFFREALPGSGQARFSVLLLHGIRFSSETWQNLGTLHRLAQAGYRAVAIDLPGLGHSKEAAAPAPIGELAPGSFLAAVVDALELGPPVVISPSLSGMYSLPFLTAPGSQLPGFVPVAPICTDKINAANYASVKTPALIVYGDQDPMGQTSFEHLKQLPNHRVLIMKGAGHPCYLDKPEEWHTGLLDFLQGLQ obs_value=soluble
biopolymer_sequence=MAHHHHHHMVLRPRPLKHSLLRRGRINPAATHREVSLPILLTLVTCPIPRPMQVDRSLWAEGPLQAQHPHSPTHLSRQQVECMLLAGVPPRAFRLQDKPSKVSETAKEAPQGDEEGEPRAQHEADHTTKGGGDDFLDKNGNEKREPPAGSQTAPLPDGGKNAHYYFFLLLPARPATRCHLSADEVVEQRQKFSAMKQLPLGELSVTEVLLNAQPLAHSQGAWTS obs_value="not soluble"
biopolymer_sequence=MAHHHHHHMSAPTALTVPRRSASDAALADATRRELEEEMGRSDKPEQPTPPAGWQVVRKPGTCTFDLTKSFEGEDLVVRYSTNQDSDKANSHNIFVYITQKNGQTMQADLSIEEGELVLNNIRFYDEAALAKDTGAEAEAKRNELYTGPLVHELDYDLLNCVMTYLEKRGVDEKLGEFVVLYSFWAEQQDYEAWLTTMNKFAS obs_value=soluble
biopolymer_sequence=MSSIDIVIPNYNYGRFLKGCVESVLGQNIADMRILIIDNASTDDSVAISRSLAAANPRIETSLRARNLGGHASFNAGIDWARADYFAIICADDVLSPGALARAMEALDNNPGAHMAFGRTAFFRDDAEIASGLHSDADGMRLHRGMDFIANICATGRSPVQGPLAVTRTHIQQHAGHYRPALRHTDDVEMWMRLAVLGDIVELDAVQNFTRIHGANQSAILDNVLAWNAEIEAALESFFGNEGALLADAKTLLRRGRASLSDRAYWCALSNLVRRRPGAGALLAQAFRLRPASALLPPISYLMRRPDALHRIRAAIARRLEHHHHHH obs_value="not soluble"

[ask] Fill blank: measured soluble on expression in E. coli of the sequence MSLDTTGITPTSIRIGSTSPQSGPVSAYGVQARCQAAYFKMINDRGGIAGRKIDFIYYDDAFNPAKTVEQTRKLVESDEVALLFSNLGTATNSAIVKYANAKKIPHLFLSVNGDKWSDYKAHPWSIGFAPSARTEAAIFVKHMLAEKPDAKFAVLYQNDDFGKDFVLGAKDVLGERESRQLVTISHETSDPTIDSQILQLRAAAPDALISGTTAKFTAQAIRKVAETRWQVRHYITGGSSSYAGTIGPAGPENAVGVISSAYLKDVADPAWKDDQGIKDFLAFMQSYFPEGNKDDFYNLYAYTVASALVKVLTQCGDGWTRENIMAQATNLKDVELPTLLPGIRVNTSPTDYRPLTQVQLQKWDGKAWVRFGDVLGAEGHHHHHH is ____.
[reply] soluble

[ask] Name the recorded soluble on expression in E. coli for MSLKVDQKEEQVQKRLEALDKLTKTLAIVEQYYVDDQNISDLVDKSLSGLLSNLDAHSSFLNEKDFNDMKIQTNGEFGGLGITVGMKDGALTVVSPIEGTPADKAGIKSGDIILKINDEATLGINLNDAVDKMRGKPKTQITLTIFRKGATKPFDVTLTREIIKIESVYAKMIENENILYLRVTNFDKNVVDVASKELKKYPNVKGVILDLRNNPGGLLNQAIGLVNLFVDKGVIVSQKGRIASENQEYKADPKNKISNASLVVLVNGGSASASEIVSGALQDLKRGVIVGENTFGKGSVQQIIPINKTEALRLTIARYYLPSGRTIQAVGVKPDIEVFPGKVNTQEGHHHHHH .
[reply] soluble

[ask] Reported soluble on expression in E. coli for SARLPKLAVFDLDYTLWPFWVDTHVDPPFHKSSDGTVRDRRGQDVRLYPEVPEVLKRLQSLGVPGAAASRTSEIEGANQLLELFDLFRCYLHSHPEWNESSNSKSRVRDICEGPNWAFEVQP : what is it?
[reply] soluble

[ask] Can you share its soluble on expression in E. coli? I mean this sequence: MCFTKKSTKTPPEPISKDSADKKKKTTIKKGKKFPMMNMIVKNKKNEVQVEKKPEEVPEQNKSVKDQTKKEEVKVVEEDKVEKKVEQKKPIINRPNCVAINPRSATSGKKNKYKFKYGQIDQQELSINNDKTEYLENAQLTKLMSHADVRALMGGQFAQGENADTNNCQDTVEEVDSEMLEIAFSPLLAVIPREDERVYGAFVHPTEQKKNAEA
[reply] soluble
